// data source = paper PMC9482650

# experimental-system: T1, ARHGAP21, Q5T5U3
# T1 sequence (Q5T5U3 45-169, limits assumed, looked up): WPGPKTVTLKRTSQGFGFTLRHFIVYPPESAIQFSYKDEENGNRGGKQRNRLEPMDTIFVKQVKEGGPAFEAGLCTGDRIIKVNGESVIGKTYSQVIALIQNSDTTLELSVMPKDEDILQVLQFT
# test-description: holdup assay
# Parameters: key: below the threshold = too weak to quantify, mostly under pKd 3.1 to 4
# assay-context: plain residues with an end cap or a label only (N-terminal biotin on a linker: ado-ado)

binder	pKd
LPAHHNATRL [SLC34A1, Q06495;Q06495-1]	3.99
VDSTVKVWTC [TRAF7, Q6Q0C0]	4.36
EVEEFPETSV [TRPV3, Q8NET8]	4.15
HLRARKSEWV [GJD4, Q96KN9]	3.56
YRLAQESGLV [ABCC6, O95255]	4.1
